# target under test: Neu5Ac(a2-6)Gal(b1-4)Glc
# assay details: glycan array binding signal (z-score within array); higher = stronger binding
# details: glycan notation: IUPAC condensed, linker removed
The sample as a whole holds a higher share of the strongest signals than the screen did.
Kindly state glycan array binding signal (z-score) for each of the entries shown.
Answers are plain numbers.

# annotated cases, reported glycan array binding signal (z-score) shown
>  <binder>
FimA-N2 (Actinomyces oris) (protein) MHHHHHHSSGVDLGTENLYFQSNAWIYDVNVYPKNEAIDVDKTIQAQKLNGYGVGSLIKFPVESTAPTLDAKSFYKYFQLKDTLDERLSEVTATDVSLEGTPLQPTDYKVETKQQTVTVTFTAEGLKKIKAAPGKKVSAVFQGKVTKAGNGAITNRAQVISDTLYAEQPPTPETPPTDPENPPTSDEVISRWGDLSIKKVDTHQQGQTKA

>  <experimental endpoint>
glycan array binding signal (z-score)

>  <measured result>
0.148

$$$$
>  <binder>
Na-CTL-1 (Necator americanus) (protein) MQRSFLLLLVVLAGAWAVNTTIPLKLMGGFTPMKYQCVGRVSDIWADVLFLIESSDMITKSGFRQVIAFITATTKKMTIGQDEKQTRVGFITYGEEAKLIYDLDHWRSTEKLSDLVQKIPYVKSSGTNIAAAIALANKVFNSPTHRPNVPKVMVIVANGLKKGSQNPIPVATAFKDFGGIIITIEYTQYDNIQVPILKKIASEGYNIRSNDEDFSVRTLTNMLLQANCFCPDHYVPFRVNNPEFGCFVTAKIPSMWRDAAEMCRAVEEGKLVKVENEEKAAFIMKLVGPKKEAWIGLRYYGNKFQWTDGTKLNADDFNLWPEDIKELNGPHCVSMYQDQKDKKYYWRAGKCLEDMRYVCEVQPCSASNYCSEPVFMYRQKHRALLPAPPPPPN

>  <experimental endpoint>
glycan array binding signal (z-score)

>  <measured result>
-0.543

$$$$
>  <binder>
MIC1 (Toxoplasma gondii), O00834 (protein) VGPEAYGEASHSHSPASGRYIQQMLDQRCQEIAAELCQSGLRKMCVPSSRIVARNAVGITHQNTLQWRCFDTASLLESNQENNGVNCVDDCGHTIPCPGGVHRQNSNHATRHEILSKLVEEGVQRFCSPYQASANKYCNDKFPGTIARRSKGFGNNVEVAWRCYEKASLLYSVYAECASNCGTTWYCPGGRRGTSTELDKRHYTEEEGIRQAIGSVDSPCSEVEVCLPKDENPPLCLDESGQISRT

>  <experimental endpoint>
glycan array binding signal (z-score)

>  <measured result>
-0.342

$$$$
>  <binder>
Pbx1CASH domain (Cryptococcus neoformans) (protein) MDETKPLWGNPRADGISLACKDSIVERNVVYDATDGAIVLFGSAGSTVKNNHVYARTRVILGGINLVDYEPWDGDYTNVKVHHNHLYALGRYFKVGIVIGPASWSDDTESVVHSASVTDNEFSGGYWGYGIVVASAKNFEVLRNKVIWDGEQGVARFSGVPGS

>  <experimental endpoint>
glycan array binding signal (z-score)

>  <measured result>
-0.412

$$$$

// returns reported glycan array binding signal (z-score) for input LngA (Escherichia coli) (protein) MLSVYNRTQKFKAEARKKIAKYHELRKQRGMSLLEVIIVLGIIGTIAAGVVILAQRAFDSRAVTDLVTNTNTVRVRMKDAYQRDGKYPDFVDPLSLTANTIKTDTSGIPAAQLVQLGKITPDEVRNNISGDFIAIGGALTSNGAQVKKGFAIELNGLSQEQCRSILGQVGNNWEYVAIGTSASGSYAMTATGVDMSVAASTTVLRSLGNNGQTTLTADKILSTCTAQVNSITLGSR
-0.2
